biological target: hPTP1B1-400 (Homo sapiens); assay: PTP1B inhibition assay (spectrophotometric, 4-nitrophenyl phosphate); format: biochemical; settings: absolute pIC50 difference against ursolic acid
Quick reference for ΔA, activity difference between UA and the compound among some compounds
Respond numerically, and do not add a unit to the figure.

Inquiry: Which ΔA, activity difference between UA and the compound value belongs to `CN1C(=O)c2ccccc2-n2c(nc3ccccc3c2=O)[C@@H]1Cc1ccccc1` ?
Reply text: 1.3

Inquiry: Entry to check: `COc1cc(CCc2ccc(OC)c(OC)c2)cc(OC)c1`
Reply text: 1.3

Inquiry: Entry to check: COc1cc(O[C@@H]2O[C@H](CO[C@@H]3OCC(O)(CO)[C@H]3O)[C@@H](O)[C@H](O)[C@H]2O)c2c(-c3ccc(O)c(O)c3)cc(=O)oc2c1 (stereo partly drawn)
Reply text: 1.2

Inquiry: Entry to check: C=C(C)C(C)(C)CCC(C)C1CCC2(C)C3CCC4C(C)(CCC(O)C4(C)C)C3=CCC12C (stereo not drawn)
Reply text: 1.3

Inquiry: Entry to check: `C[C@H]1C(=O)CC[C@@H]2[C@]1(C)CC[C@H]1[C@@]2(C)CC[C@@]2(C)[C@@H]3CC(C)(C)CC[C@]3(CO)CC[C@]12C`
Reply text: 0.2

Inquiry: Entry to check: `COc1ccc([C@H]2OC[C@H]3[C@@H]2CO[C@@H]3c2ccc3c(c2OC)OCO3)cc1OC`
Reply text: 0.8

---

Biological target: hPTP1B1-400 (Homo sapiens, UniProt P18031)
Sequence (P18031 1-400): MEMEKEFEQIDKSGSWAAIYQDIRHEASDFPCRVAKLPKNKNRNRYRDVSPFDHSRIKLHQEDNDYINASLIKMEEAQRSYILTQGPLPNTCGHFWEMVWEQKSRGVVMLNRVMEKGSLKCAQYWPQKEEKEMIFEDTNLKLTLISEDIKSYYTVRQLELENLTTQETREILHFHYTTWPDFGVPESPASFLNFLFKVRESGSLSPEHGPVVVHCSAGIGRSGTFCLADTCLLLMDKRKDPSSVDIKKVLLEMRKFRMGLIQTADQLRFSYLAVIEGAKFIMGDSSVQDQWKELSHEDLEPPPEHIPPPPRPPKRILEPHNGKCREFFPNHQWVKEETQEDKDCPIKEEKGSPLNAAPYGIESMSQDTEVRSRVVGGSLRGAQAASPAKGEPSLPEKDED
Assay: PTP1B inhibition assay (spectrophotometric, 4-nitrophenyl phosphate)
Type: biochemical
Conditions: negative log of the IC50 in Molar; read-out: pIC50 (converted)
Experimental: The inhibitory activity was determined as a percentage compared to the blank (Buffer) according to the following equation: %InhibitionPTP1B=1−A405s/A405b×100%, (1) where A405(s) is the ΔA of the sample (At20 − At0), A405(b) is the ΔA of the blank obtained in the same manner as that of the sample. Using the data obtained, the enzyme inhibition curve was plotted, for which the average percentage of inhibition was plotted as a function of the inhibitor concentration.
observable: IC50
Value and unit, in that order.

CC=CC1=CC=CC(=C2C(=O)CNC2=O)O1 [Compound 6, E/Z-vermelhotin] = 79.4 µM
COc1cc(O)cc(CCc2cccc(O)c2)c1 [Compound 34, Batatasin III] = 245 µM

Inquiry: Which IC50 value belongs to COC(=O)/C(C)=C\CC[C@H](C)[C@@H]1CC[C@]2(C)C3=CCC4C(C)(C)C(=O)CC[C@]4(C)C3CC[C@@]12C (stereo partly shown) [Compound 86, Methyl ester of masticadienonic acid] ?
Reply text: 324 µM

Inquiry: Entry to check: CN1C(=O)c2ccccc2-n2c(nc3ccccc3c2=O)[C@@H]1Cc1ccccc1 [Compound 40, Benzomalvin A]
Reply text: 427 µM

---

molecular target: hPTP1B1-400 (Homo sapiens); experiment: PTP1B inhibition assay (spectrophotometric, 4-nitrophenyl phosphate); format: biochemical; conditions: absolute pIC50 difference against ursolic acid
observable: ΔA, activity difference between UA and the compound

CCCCCCCCCCCCCCCCCCCCOC(=O)C=Cc1ccc(O)c(OC)c1 [Compound 43, Eicosyl 4-hydroxy-3-methoxy-cinnamate] = 1.5
C/C(=C/CC[C@H](C)[C@@H]1CC[C@]2(C)C3=CC[C@H]4C(C)(C)[C@H](O)CC[C@]4(C)[C@H]3CC[C@@]12C)C(=O)O [Compound 49, 3α-Hydroxymasticadienonic acid] = 0.8
CC1(C)C=Cc2cc3ccc(=O)oc3cc2O1 = 1.6
CC(=O)OC[C@H]1O[C@@H](Oc2cc(O)cc3oc(=O)cc(-c4ccc(O)c(O)c4)c23)[C@H](O)[C@@H](O)[C@H]1O = 1.1
CC(=CCCC(C)C1CCC2(C)C3=CCC4C(C)(C)C(=O)CCC4(C)C3CCC12C)C(=O)O (stereo not drawn) = 0.4

Inquiry: Which ΔA, activity difference between UA and the compound value belongs to CC(C)(O)C(O)C1CC(C2CCC3(C)C4=CCC5C(C)(C)C(=O)CCC5(C)C4CCC23C)C(O)O1 (stereo not drawn) ?
Reply text: 0.6

---

Quick reference for Ki among some molecules
Target: PTP1B (Homo sapiens)
Sequence (P18031 1-400): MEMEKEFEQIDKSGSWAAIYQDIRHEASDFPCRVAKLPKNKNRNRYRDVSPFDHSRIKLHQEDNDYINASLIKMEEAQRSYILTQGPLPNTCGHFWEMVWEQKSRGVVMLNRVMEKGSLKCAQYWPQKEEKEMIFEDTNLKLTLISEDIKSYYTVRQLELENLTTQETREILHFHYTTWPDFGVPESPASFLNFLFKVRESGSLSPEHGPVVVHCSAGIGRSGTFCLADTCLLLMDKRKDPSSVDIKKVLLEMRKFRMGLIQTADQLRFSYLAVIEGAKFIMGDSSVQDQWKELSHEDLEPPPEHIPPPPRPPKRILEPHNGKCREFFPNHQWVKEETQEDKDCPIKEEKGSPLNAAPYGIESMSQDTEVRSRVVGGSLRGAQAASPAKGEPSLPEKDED
Experiment: Kinetic analysis of PTP1B inhibition
Format: biochemical
Details: mixed type (Eq. 3) or parabolic competitive model (Eq. 4); read-out: KIC
Description: The conditions for preparing reagents (enzyme and substrate), incubation, and analysis of results were the same as that described in Section 2.1 ([Jiménez-Arreola et al., 2020]; [Díaz-Rojas et al., 2021]). Additional steps in the methodology are described below. To characterize the type of inhibition exerted by 1, 3, and 6 on PTP1B, the hydrolysis of 4-NP at the sub-saturating state and increasing concentrations of each compound was measured. […]
Report the figure in µM without appending any unit label.

COc1c(O)cc2ccc3cccc(O)c3c2c1OC = 40

// switching to the query molecule
Inquiry: Which Ki value belongs to `CC=CC1=CC=CC(=C2C(=O)CNC2=O)O1` ?
Reply text: 31

---

Quick reference for IC50 among some molecules
molecular target: hPTP1B1-400 (Homo sapiens, UniProt P18031); assay: PTP1B inhibition assay (spectrophotometric, 4-nitrophenyl phosphate); format: biochemical; conditions: DoseResp model fit, Origin 8.0; axis C (mM); read-out: LOGx0 of the IC50 curve
Report the figure in mM without appending any unit label.

# annotated cases, reported IC50 shown
C=C(C)[C@H]1COc2c(C)cc3oc4c(C[C@H](O)C(C)(C)O)ccc(O)c4c(=O)c3c2[C@@H]1O [Compound 7, Tajixanthone hydrate] = 0.0832
COc1cc(C)c2c(=O)c3c(O)cc(OC)cc3oc2c1 = 0.0888
CCC(C=CC(C)C1CCC2C3=CCC4CC(O)CCC4(C)C3CCC21C)C(C)C (centres unmarked) = 0.989

Inquiry: Which IC50 value belongs to CC(=CCCC(C)C1CCC2(C)C3=C(CCC12C)C1(C)CCC(=O)C(C)(C)C1CC3)C(=O)O (centres unmarked) ?
Reply text: 0.419

Inquiry: Entry to check: COC(=O)/C(C)=C\CC[C@H](C)[C@@H]1CC[C@]2(C)C3=CCC4C(C)(C)C(=O)CC[C@]4(C)C3CC[C@@]12C (some centres unmarked)
Reply text: 0.325

Inquiry: Entry to check: `CC=CC1=CC=CC(=C2C(=O)CNC2=O)O1`
Reply text: 0.0796

---

molecular target: hPTP1B1-400 (Homo sapiens, UniProt P18031); experiment: PTP1B inhibition assay (spectrophotometric, 4-nitrophenyl phosphate); type: biochemical; conditions: IC50 (μM), enzyme 66 nM, 4-NP 0.125 mM, Tris-HCl pH 6.8, 20 min, room temperature
observable: IC50 (µM)
Report the figure in µM without appending any unit label.

COc1cc(OC2OC(CO)C(O)C(O)C2O)c2c(-c3ccc(O)c(O)c3)cc(=O)oc2c1 (stereo not drawn) [Compound 2] = 40.4
COc1cc(CCc2ccc(OC)c(OC)c2)cc(OC)c1 [Compound 91, 3,3',4',5-Tetramethoxybibenzyl] = 419

// switching to the query compound
Inquiry: Which IC50 value belongs to CC[C@H](/C=C/[C@@H](C)[C@H]1CC[C@H]2C3=CC[C@H]4C[C@@H](OC(C)=O)CC[C@]4(C)[C@H]3CC[C@]12C)C(C)C [Compound 85, α-Spinasterol acetate] ?
Reply text: 277
